- system_name: T1, human VEGF (human, UniProt P15692-4 27-191)
- T1 construct: Bought recombinant protein; also called hVEGF; human VEGF-A
- assay_details: SPR (BIAcore X100), VEGF on CM5 chip, IgG injected, 1:1 Langmuir
measured_parameter: kon
Please make sure the unit comes right after the number.

Entry HF2-5 (antibody, V domains shown, also called HF-5) VH: EVQLVESGGGLVQPGGSLRLSCAASGFMIRSHGMQWVRQAPGKGLEYVAGISSDGSWARHSAAVEGRFTISRDDSKNTAYLQMNSLRAEDTAVYYCARDFSTGYGADSIDAWGQGTLVTVSS VL: DIQMTQSPSSLSASVGDRVTITCSGGSDSAYGYGWYQQKPGKAPKTLIYWDDKRPSGVPSRFSGSRSGTDFTLTISSLQPEDFATYYCGAWEYSGGVGIFGQGTKVEIK has what kon?
1.3e+06 M⁻¹ s⁻¹
